# System: MS2 coat protein
# assay: apparent KD of MS2 coat protein; higher = weaker reporter binding
# setup-conditions: Eterna round: R107; input ligand: none
Would you mind labelling by apparent KD of MS2 coat protein? At or over 20 nM is class 1, under is class 0.

Observe how each entry below is paired with its result.
• UUAAUCUUAUAUGAAAACAUAUAAGCAGAAGGAGCGUGAUAAAACACAGGUAGGUCGCUGAAGGGAACAUGAGGAUCACCCAUGU [AstrosSSArgA#4] = class 1
• ACAUUUAACUGAAGGAGCGUGAUAAACAUGAGGAUCACCCAUGUACCAAAGAUUUUCAGUUCACAGGUAGGUCGCAGACUAAUGA [JR_ExcArginiB_Sub016] = class 0
• CCCUGGGUGGGAAGGAGCGCAUAUUCAACAUGAGGAUCACCCAUGUACAGACGUGAGUCAUUGCAGGUAGGUCGCCCACCCAGGG [SS-ArgB21] = class 0

**Query** Identify whether the reported apparent KD of MS2 coat protein of the following sequence is 20 nM or greater: AGCACUGUGACGGCCGCCACUAUAUUAGGGUGGUAAGGUUCAUAAAUACAUGAGGAUCACCCAUGUAGGACCGGGUCUCAGUGCA [Omei Trp Exc B A v2]
**Result** class 0

**Query** // inclusive: apparent KD of MS2 coat protein at least 20 nM? input: UGGCAAGAGGGAAGGAGCGUCAGCUGAGUCACAUGAGGAUCACCCAUGUCGCACAUAGUGUGACAGGUAGGUCGCCCUCUGCCGU [Vesosocera]
**Result** class 1

**Query** Could you please find out whether `GGGUACAUCGCGGCCGCCACUUGUGUAAAUACAUGAGGAUCACCCAUGUCGAUGGAGACAUCGGAGAGGACCGGGUGAUGUACCG` has apparent KD of MS2 coat protein that meets 20 nM or exceeds it?
**Result** class 1

* * *

Recorded apparent KD of MS2 coat protein, one value per entry.
# Test system: MS2 coat protein
# assay: apparent KD of MS2 coat protein; designed switch direction (-1 OFF switch, 1 ON switch): -1; higher = weaker reporter binding
# setup-conditions: Eterna round: R95; input ligand: microRNA oligo, concentration not stated
Field format: number, assumed nM, no unit text.

The cases that follow already have their apparent KD of MS2 coat protein on record.
• UCAUGUUAGCAGGAUAUGCUAUUUAUUUUUUAUGCAGAAGGGCUUACAUGAGGAUCACCCAUGUAUUAAGUUUU [JR_E6_Sub074] (puzzle: Exclusion 6) = 115
• UCGUGGUAACUCAGCAGUUUCCUGAGCGGAGGAACUUUGACAUGAGGAUCACCCAUGUUGCUUUUUGCUCAUCUUAA [JR_SV3TOV2_Sub042] (puzzle: Sensor v3, turn-off variant 2) = 40.3

Pending sequence:
**Query** Quick one: apparent KD of MS2 coat protein for UAAUUACAUGAGGAUCACCCAUGUGAGGAUAUGUCCAUAUUCGGCAAAUCGGAUAUGGACAGAAGGCACACCGG [JR_Exclusion1_Sub009] (puzzle: Exclusion 1) ?
**Result** 55.8

* * *

# Tested on: K4 kissing-loop RNA reporter;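 note: bound reporter read as fluorescence of individual clusters on recovered sequencing chips by microscopy, with normalized cluster intensities fitted with a binding model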
# assay: apparent KD of K4 kissing-loop reporter; higher = weaker reporter binding
# setup-conditions: Eterna round: R107; input ligand: theophylline 20 uM
assay-metric: apparent KD of K4 kissing-loop reporter (nM)
The answer is to be given in nM; state only the numeric part.

- AGAUUCGACACGGCCGCCACUUCCGGUGGCUGGUGUCAUGGUGCGCGUGAGUGAUGUUUAUGUGGGAGGACCGGGUGUUGAGUCU [whbob_Ex_Tryp_B_w42]: 559
- GCAGUGAUGUUGCGCGGGUACGGUAGAGUGCGAGGACCGGUACGGCCGCCACUCGUACGGAACUGGCUAAUAUAUGGAUAGGUGA [V]: 406
- GGUAGCAUGGCGGCCGCCACUACCUAGUGAUGUUAGGCUGUGGACAUAGGAGCAAGAUAAAUAUGUAGGACCGGGCCAUGCUACC: 119

**Query** Given UGUAUGUGAUUUGAUACCAGACCAGCUGGUGGUACCUGAGUGAUGUUCGGGAUGGUCUGGGUCCCUUGGCAGCAAAUCGCAUACU [KL-SSTheoB21] , state its recorded apparent KD of K4 kissing-loop reporter.
**Result** 212

**Query** Which apparent KD of K4 kissing-loop reporter reading was recorded for the sequence UAUAUAGUGACGGCCGCCACUAUUGUGAUGUUAUUGUUAGAGUGAUGUUUUGUUGUUUAAUUUUGUAGGACCGGGUUAUAUGUUA [xxzsmullin] ?
**Result** 530

**Query** Given the entry AAACGUUGGUGCGAUACCAGCUGGUCGGAAACGACCUUGCUGGAGUGAUGUUCCAAGUAAAGCCCUUGGCAGCGCACCGACGAAA [MAT - Same State Theophlline B - Mod of Eli - D23] , report its measured apparent KD of K4 kissing-loop reporter.
**Result** 135

**Query** What does the data say about its apparent KD of K4 kissing-loop reporter? Entry: UGUCAUUGGUCGGCCGCCACUAGAAGGUCAAAGACCAUAGAGUGAUGUUCUGAGACGAAAGUCACUAGGACCGGGACCGAUGACU [TrypBS 6 #SwitchBubble #K4Middle]
**Result** 440

**Query** Give the measured apparent KD of K4 kissing-loop reporter of GGAUAGGACAGAGGAUAUGGUAGUGAUGUUACCAAACUGGUUAUCAAUGUUAGAAAAUUGACAAAACCAGAAGGCUGUCCUAUCG [KL-XFMN-B15] .
**Result** 59.2

**Query** What value of apparent KD of K4 kissing-loop reporter has been recorded for this entry: UGUACCGAGUGAGGAUAUGUCGUCGAAAGACGAAAUGGAGUGAUGUUCCUUAAACUGCGAAAGCAGACAGAAGGUACUUGGUACU [FmnBS 29 G11+U75]
**Result** 312

**Query** What does the data say about its apparent KD of K4 kissing-loop reporter? Entry: GAUGAUCGCGCGGCCGCCACUGGUCAGUGAUGUUGACAUUAAUGCGCCGAGUAGUAACGGCGCAACAGGACCGGGCGCGAUGUAG [#11 K4 Tryptophan B Same State]
**Result** 185

**Query** Given the entry CCAGGAUGAUGAGGAUGAUAAAUUACUGAAGGAGCGCAUAUAGUUGCAGGUAGGUCGCGGUGAAUAAGUAUAGUGAUGUUAUACC [SSArgA.Aa] , report its measured apparent KD of K4 kissing-loop reporter.
**Result** 360

**Query** Query: apparent KD of K4 kissing-loop reporter; subject: AGUUCUUGCCGAAGGAGCGAGGCAGAGUGAUGUUCUGCAAAGAGGUCGAAAGACCUCCUGCCUCAGGUAGGUCGCGGCAUGAACA [Omei KL Arginine B Exc A v5]
**Result** 509

* * *

# Test system: MS2 coat protein
# assay: apparent KD of MS2 coat protein, switch ON state; designed switch direction (-1 OFF switch, 1 ON switch): 1; higher = weaker reporter binding
# setup-conditions: FMN input: 0 or 200 uM; Eterna round: R93 (includes R88 designs)
apparent KD of MS2 coat protein below 30 nM gives N; apparent KD of MS2 coat protein at or above it gives Y.

* AGAAAUAAAGCUGAGGAUAUCCAAAACCAAACAUGAGGAUCACCCAUGUAAAAGAAAAUAAAAUGGGAGAAGGCAGCAAAUAAGA [Designing denovo 8] | N
* AACAAUCUAUCUGAGGAUAUCAUGUCAAAGACAUGAGGAUCACCCAUGUCGCAGGAAACUGCUCAUGAGAAGGCAGAUAGAUUGA [SS2: 1128] | N
* AUAAAACAUGAGGAUCACCCAUGUGAAAAUAUGGGAGGAUAUACGUAGACGAAAGUCGACGUAGAAGGCCUAAAAG [Same State 1.4n.2 (Mat - Mod of Eli - )] | N
* AGAAGACAUGAGGAUCACCCAUGUGGGAUUAUGGGAGGAUAUACAAAGACGAGAGUCAGAGUAGAAGGCCUAGGAG [salish99-ss1-114(!)] | Y
* AAACAGAUAGGACAGGAUAUGUCGUGAUAAACAUGAGGAUCACCCAUGUGAGACAUCACGUAAUCGCAGAAGGGUCCCGUCUUAC [Usonsoave] | N

**Query** Hi, just wondering whether GAAAAACAUGAGGAUCACCCAUGUAGAGAUAUGGGAGGAUAUACGAAGACGAAAGACGAUGUAGAAGGCCUAAAAG [Garnet 59] shows apparent KD of MS2 coat protein of 30 nM or higher.
**Result** Y

* * *

apparent KD of MS2 coat protein: recorded values
# System: MS2 coat protein
# assay: apparent KD of MS2 coat protein; higher = weaker reporter binding
# setup-conditions: Eterna round: R101; input ligand: none
Entry rule: numbers only, all in nM.

Observe how each entry below is paired with its result.
• CUUACUUUGUAGAAGGGUGACAUGAGGAUCACCCAUGUGCGUCUCCUGAAAGACCAGGGUACGCCACAGGAUAUACAAAGUAAG [Tigeatdi] (puzzle (switch architecture): Inverted Same State NG 2) = 116
• AAAUAAAUUGAAGGAUAUCAGGGUGCACCUCAGUAAAACUGAGGUGCACCCUGAGAAGGUCGAGGAUCACCCGAUCUAAAUAAA [#SharedSequence SLExNG1: 1-2] (puzzle (switch architecture): Small Loop Exclusion NG 1) = 8.76
• AAAUAAAUUCAAGGAUAUGACUCCGAAACGGAGUCAGAAGGUGAGGAUCACCCACCUAUGAUCAGACCUCAGGAAACUGAGGUC [#SharedSequence ExNG1 - 39] (puzzle (switch architecture): Exclusion NG 1) = 6.19

**Query** Hello, I am looking for reported apparent KD of MS2 coat protein with MS2 coat protein for AUGGUUGUCGUAGGAUAUGUAGGAUAUUCCUACAUGAGGAUCACCCAUGUUCGCAUGGAAGAAGGACAGAAGGACGAUGACCAA [salish99_SSNG2_008 #endbits investigation] (puzzle (switch architecture): Same State NG 2) . Could you help?
**Result** 840

# credit: the supplement of paper PMC9170038
